# Tested on: CAKI-1 renal
# assay_name: NCI tumour cell line growth inhibition, 48 h
Below, each entry is listed alongside its reported TGI.
metric_name: TGI

{"compound": "Cc1ccc(S(=O)(=O)[N-]C2C(=O)c3ccccc3C(=O)C2[n+]2cccc(C(N)=O)c2)cc1 (stereo unspecified)", "study_system": "CAKI-1 renal", "metric_name": "TGI", "assay_result": "> 100 µM"}
{"compound": "CCc1ccc(/C(C)=N/NC(N)=S)cc1", "study_system": "CAKI-1 renal", "metric_name": "TGI", "assay_result": "> 100 µM"}
{"compound": "Cc1cc(S(=O)(=O)Nc2nc(N)nc(N3CCOCC3)n2)c(SCC(=O)O)cc1Cl", "study_system": "CAKI-1 renal", "metric_name": "TGI", "assay_result": "> 10 µM"}
{"compound": "C[C@H]1C(OCCOC2O[C@@H]3O[C@@]4(C)CC[C@H]5[C@H](C)CCC([C@H]2C)[C@@]35O4)O[C@@H]2O[C@@]3(C)CC[C@H]4[C@H](C)CCC1[C@@]24O3 (stereo partly specified)", "study_system": "CAKI-1 renal", "metric_name": "TGI", "assay_result": "> 100 µM"}
{"compound": "CC(C)CC(CNC(Cc1ccc(Cl)cc1)C(N)=O)NC(=O)C(Cc1cnc[nH]1)NC(=O)CNC(=O)C(NC(=O)C(C)NC(=O)C(Cc1c[nH]c2ccccc12)NC(=O)C(CCC(=O)O)NC(=O)C(N)Cc1ccccc1)C(C)C (stereo unspecified)", "study_system": "CAKI-1 renal", "metric_name": "TGI", "assay_result": "> 133 µM"}
{"compound": "COC(=O)/C(C#N)=C1\\NC(=O)CC(c2ccccc2)C1C#N (stereo unspecified)", "study_system": "CAKI-1 renal", "metric_name": "TGI", "assay_result": "> 100 µM"}

====

# Tested on: SN12C renal
# assay_name: NCI tumour cell line growth inhibition, 48 h

{"molecule": "Nc1nc(Cl)cc(NCC2(CO)CCC2)n1", "study_system": "SN12C renal", "TGI": "> 100 µM"}
{"molecule": "Cc1cc(NC(=O)C(=O)Cc2cnc3ccccc3n2)c(S(=O)(=O)O)cc1Cl", "study_system": "SN12C renal", "TGI": "> 100 µM"}
{"molecule": "CCC(CC)C(=O)OC[n+]1cccc(-c2c(COC(=O)NC(C)C)c(COC(=O)NC(C)C)c3n2CCC3)c1", "study_system": "SN12C renal", "TGI": "> 100 µM"}
{"molecule": "O=C1C(Cl)=C(Nc2cccc(C(F)(F)F)c2)C(=O)N1Cc1ccccc1Cl", "study_system": "SN12C renal", "TGI": "16.8 µM"}
{"molecule": "Cn1cc2c(=O)n3ncn(-c4ccc(Br)cc4)c3nc2n1", "study_system": "SN12C renal", "TGI": "> 100 µM"}
{"molecule": "CCCCCCCCCCCCOC1C(C(COC2OC(C(O)CN3CCCCC3)C3OC(C)(C)OC23)NC(=O)Nc2ccccc2)OC2OC(C)(C)OC21 (stereo unspecified)", "study_system": "SN12C renal", "TGI": "33.2 µM"}
{"molecule": "CCOC(=O)CNC(=O)CCCn1c(=O)c2c3ccccc3n(C)c2n2nnc(-c3ccccc3)c12", "study_system": "SN12C renal", "TGI": "> 50 µM"}
{"molecule": "COc1ccc(/C=C/c2nc(=S)[nH][nH]2)cc1", "study_system": "SN12C renal", "TGI": "> 100 µM"}
{"molecule": "COc1cccc2c1cc([N+](=O)[O-])c1c(C(=O)O)cc3c(c12)OCO3", "study_system": "SN12C renal", "TGI": "> 100 µM"}
{"molecule": "COc1cc(-c2nc(SCC(=O)Nc3ccc(C(C)=O)cc3)[nH]c(=O)c2C#N)cc(OC)c1OC", "study_system": "SN12C renal", "TGI": "> 100 µM"}
{"molecule": "CCCC(=O)NC(c1ccc2c(c1)OCO2)c1ccc2cccnc2c1O (stereo unspecified)", "study_system": "SN12C renal", "TGI": "> 100 µM"}
{"molecule": "CCCCCCNC(=O)Oc1ccc(/C(=C(\\C)c2ccccc2)c2ccc(OCCN3CCCCC3)cc2)cc1", "study_system": "SN12C renal", "TGI": "3.4 µM"}
{"molecule": "CC1=NN2C(=O)CC(=O)N=C2S1", "study_system": "SN12C renal", "TGI": "> 100 µM"}
{"molecule": "O=C(CCC(=O)N/N=C/c1ccccc1O)N/N=C/c1ccccc1O", "study_system": "SN12C renal", "TGI": "> 100 µM"}
{"molecule": "COc1ccc(NC(=O)Nc2ccc(Nc3nc(C)cc(Nc4ccc(C)cc4)n3)cc2)cc1", "study_system": "SN12C renal", "TGI": "3.86 µM"}
{"molecule": "CC(=O)OCC1OC(n2c3c(c(-c4ccc(Cl)cc4)c(C#N)c2=S)C(=O)CC(C)(C)C3)C(OC(C)=O)C(OC(C)=O)C1OC(C)=O (stereo unspecified)", "study_system": "SN12C renal", "TGI": "> 53.4 µM"}

====

Below, each entry is listed alongside its reported log10 TGI.
# System: NCI-H522 lung
# assay_name: NCI tumour cell line growth inhibition, 48 h
metric_name: log10 TGI (log10 of the value in µM)

{"compound": "Cc1[nH]nc2c1N=C(c1ccccc1F)c1cc(C#N)ccc1N2", "study_system": "NCI-H522 lung", "log10 TGI": 1.05}
{"compound": "CO[C@@](c1ccccc1)(c1nc(C#N)c(N)o1)C(F)(F)F", "study_system": "NCI-H522 lung", "log10 TGI": 1.93}
{"compound": "CCCC[P+](c1ccccc1)(c1ccccc1)c1ccccc1", "study_system": "NCI-H522 lung", "log10 TGI": 0.84}
{"compound": "CCc1ccccc1-n1c2nc(=O)n(C)c(=O)c-2nc2ccccc21", "study_system": "NCI-H522 lung", "log10 TGI": 1.44}
{"compound": "Oc1cc(O)cc(/C=C/c2ccc(O)c(O)c2)c1", "study_system": "NCI-H522 lung", "log10 TGI": 0.86}
{"compound": "COc1cc2c(cc1OC)C(Cl)C(c1ccc(Cl)cc1)=C2Cl (centres undefined)", "study_system": "NCI-H522 lung", "log10 TGI": 1.51}
{"compound": "CC(=O)OC1OC2C(NC(=O)OC(C)(C)C)C1CC2(OCc1ccccc1)OCc1ccccc1 (centres undefined)", "study_system": "NCI-H522 lung", "log10 TGI": 1.48}
{"compound": "CCN(CC)CCN=Cc1c(O)c(O)c(C(C)C)c2cc(C)c(-c3c(C)cc4c(C(C)C)c(O)c(O)c(C=NCCN(CC)CC)c4c3O)c(O)c12", "study_system": "NCI-H522 lung", "log10 TGI": 0.53}
{"compound": "c1ccc2cc(OCC3CO3)c(OCC3CO3)cc2c1 (centres undefined)", "study_system": "NCI-H522 lung", "log10 TGI": 0.76}

====

Below, each entry is listed alongside its reported TGI.
# System: HOP-62 NSCLC
# assay_name: NCI tumour cell line growth inhibition, 48 h

{"molecule": "CCCC(=O)NC(c1ccc2c(c1)OCO2)c1ccc2cccnc2c1O (stereo not drawn)", "TGI": "> 100 µM"}
{"molecule": "OCCSCc1cc2c(O)c(c1)Cc1cc(CSCCO)cc(c1O)Cc1cc(CSCCO)cc(c1O)Cc1cc(CSCCO)cc(c1O)C2", "TGI": "15.6 µM"}
{"molecule": "CN1CCN(Cc2ccc(NC(=O)c3[nH]ncc3Nc3ncnc4sccc34)cc2)CC1", "TGI": "> 100 µM"}
{"molecule": "Oc1cc(O)cc(/C=C/c2ccc(O)c(O)c2)c1", "TGI": "28.7 µM"}
{"molecule": "CCOC(OCC)c1ccc(/C=C/c2cc(OC)c(OC)c(OC)c2)cc1", "TGI": "56.6 µM"}
{"molecule": "O=C(O)C(Br)C(Br)c1ccccc1[N+](=O)[O-] (stereo not drawn)", "TGI": "> 100 µM"}
{"molecule": "COc1ccc(NC(=O)c2sc3nc(C)c(C(O)c4ccc(OC)cc4)cc3c2N)cc1 (stereo not drawn)", "TGI": "> 50 µM"}
{"molecule": "COc1ccc(C2C(c3ccccc3)C(=O)N2c2cc(OC)c(OC)c(OC)c2)cc1I (stereo not drawn)", "TGI": "> 100 µM"}

====

# Test system: SF-268 CNS
# assay_name: NCI tumour cell line growth inhibition, 48 h
metric_name: TGI

{"compound": "CCOC(=O)C1=C(NC(C)(C)C)OCC1=O", "assay_result": "> 100 µM"}
{"compound": "CN(/N=C/c1ccnc2ccccc12)c1ccc([N+](=O)[O-])cc1[N+](=O)[O-]", "assay_result": "> 100 µM"}
{"compound": "C[C@@H]1C[C@@H](O)[C@@]2(O)C13CC(=O)OC(C3)[C@@H](C)[C@@]2(C)CO (stereo partly specified)", "assay_result": "> 100 µM"}
{"compound": "O=C1C(Cl)=C(Nc2cccc(C(F)(F)F)c2)C(=O)N1Cc1ccccc1Cl", "assay_result": "26.1 µM"}
{"compound": "C/C(=N\\NS(=O)(=O)c1ccc(C)cc1)C(CN(C)C)C(c1ccccc1)c1c(O)c2ccccc2oc1=O (stereo unspecified)", "assay_result": "> 100 µM"}
{"compound": "O=C1c2ccccc2C(=O)c2c(NCCNC(=O)C3CCCN3)ccc(NCCNC(=O)C3CCCN3)c21 (stereo unspecified)", "assay_result": "> 100 µM"}
{"compound": "CC(C)C[C@H](NC(=O)CCc1ccccc1)B(O)O", "assay_result": "59.4 µM"}
{"compound": "O=C(NCCN1CCOCC1)Nc1ccc(-c2cc3c(Nc4ccc(Oc5cccc(C(F)(F)F)c5)c(Cl)c4)ncnc3s2)cc1", "assay_result": "7.51 µM"}
{"compound": "OCCSCc1cc2c(O)c(c1)Cc1cc(CSCCO)cc(c1O)Cc1cc(CSCCO)cc(c1O)Cc1cc(CSCCO)cc(c1O)C2", "assay_result": "7.78 µM"}
{"compound": "CN(C)c1ccc2nc3c(C(=O)O)cc(=O)c(O)c-3oc2c1", "assay_result": "> 100 µM"}
{"compound": "CC(=O)c1c(O)ccc2c1CC(CC=O)O2 (stereo unspecified)", "assay_result": "> 100 µM"}
{"compound": "CCCCOP(=O)(OCCCC)/C(C#N)=C/c1ccco1", "assay_result": "> 100 µM"}
{"compound": "CC(=O)NCC1(c2ccccc2)CCN(CC2COc3ccccc3O2)CC1 (stereo unspecified)", "assay_result": "> 100 µM"}
{"compound": "CCOC(=O)CC1=NC(=Nc2cc(Cl)ccc2Cl)SC1", "assay_result": "> 100 µM"}
{"compound": "O=C1SC(c2ccc(Cl)cc2)(c2ccc(Cl)cc2)c2ccccc21", "assay_result": "> 100 µM"}
{"compound": "BrC(Br)(Br)c1cnc2ccccc2n1", "assay_result": "17.5 µM"}
{"compound": "NC(=O)c1csc(CCCCCCc2nc(C(N)=O)cs2)n1", "assay_result": "> 100 µM"}
{"compound": "COc1ccc(C2C(c3ccccc3)C(=O)N2c2cc(OC)c(OC)c(OC)c2)cc1I (stereo unspecified)", "assay_result": "> 100 µM"}
{"compound": "CCOC(=O)c1nc2ccc(Cl)cc2c2c1CCO2", "assay_result": "> 100 µM"}
{"compound": "O=c1cc(NCC2CCCCC2)[nH]c(=O)[nH]1", "assay_result": "> 100 µM"}
{"compound": "COc1cccc(/C(C=O)=C(\\Cl)c2ccc(OC)c(OC)c2)c1", "assay_result": "25.3 µM"}
{"compound": "COC(=O)/C(C#N)=C1\\NC(=O)CC(c2ccccc2)C1C#N (stereo unspecified)", "assay_result": "> 100 µM"}
{"compound": "O=C(O)c1ccccn1", "assay_result": "> 100 µM"}
{"compound": "COC(C/C(=C/CO[Si](C(C)C)(C(C)C)C(C)C)C(=O)Nc1ccccc1I)OC", "assay_result": "> 100 µM"}
{"compound": "c1ccc([C@@H]2N[C@@]3(CO[Si](c4ccccc4)(c4ccccc4)c4ccccc4)CC[C@H]4CN[C@@H]2[C@H]43)cc1", "assay_result": "22.6 µM"}
{"compound": "O=C1C(Cl)C(c2ccc(Cl)cc2)N1n1cnc2ccccc2c1=O (stereo unspecified)", "assay_result": "> 100 µM"}
{"compound": "CC(C)CNc1nc(N)[nH]c(=O)c1NC=O", "assay_result": "> 100 µM"}
{"compound": "O=C(O)c1ccc(N=Nc2cc(S(=O)(=O)O)c3cccnc3c2O)cc1", "assay_result": "> 100 µM"}
{"compound": "NCS(=O)(=O)O", "assay_result": "> 100 µM"}
{"compound": "O=C(CC1(O)C(=O)Nc2ccc(Br)cc21)c1ccc(C(=O)NCC2CCC3(CC2)OOC2(CCCCC2)OO3)cc1 (stereo unspecified)", "assay_result": "36.5 µM"}
{"compound": "COC(=O)[C@H]1C=C[C@@H](C)n2c(=O)c3ccccc3c(=O)n21", "assay_result": "> 100 µM"}
{"compound": "CC1(C)[C@@H]2C[C@H]1C(Cc1ccc(C[C@H]3c4cc(-c5ccccn5)ncc4[C@H]4C[C@@H]3C4(C)C)cc1)c1cc(-c3ccccn3)ncc12 (stereo partly specified)", "assay_result": "28.6 µM"}
{"compound": "COc1cccc(Cn2cc3c(c2)-c2oncc2CC3)c1", "assay_result": "> 100 µM"}
{"compound": "CS(=O)c1ccc(-c2nc(-c3ccc(F)cc3)c(-c3ccncc3)[nH]2)cc1 (stereo unspecified)", "assay_result": "> 100 µM"}
{"compound": "O=C1Nc2ccccc2[C@]12C[C@H]2c1ccccn1", "assay_result": "> 100 µM"}
{"compound": "Cc1cc(NC(=O)C(=O)Cc2cnc3ccccc3n2)c(S(=O)(=O)O)cc1Cl", "assay_result": "> 100 µM"}
